Source of measurements: PubChem BioAssay (NCI)

Kindly state TGI for each of the entries shown.
Tested on: 786-0 renal
testProtocol: NCI tumour cell line growth inhibition, 48 h

Reference set, count: 6
Item under review: Nc1n[n+](=O)c2ccccc2n1O . Reported TGI? > 100 µM

Item under review: COc1cc(Nc2nc3ccccc3n3cccc23)cc(OC)c1OC . Reported TGI? > 100 µM

Item under review: O=C(Nc1ccccn1)/C(=C\C(=O)c1ccc(Cl)cc1)Nc1ccccc1 . Reported TGI? > 10 µM

Item under review: Cc1c(NC(=O)/C(=N/NC(=S)N=N)C2C(=O)CC(C)(C)CC2=O)c(O)c2ccccc2c1O . Reported TGI? 27.2 µM

Item under review: C=C1c2c(C)nn(-c3ccc(OC)cc3)c2N(C)C23C[C@@H]1C1(C)c4c(C)nn(-c5ccc(OC)cc5)c4N(C)C(C)(C[C@H]12)C3 (stereo partly drawn) . Reported TGI? 19.7 µM

Item under review: O=C1C(Cl)=C(Nc2cccc(O)c2)C(=O)N1CCc1ccccc1 . Reported TGI? 36.6 µM

Give measured TGI for every item shown.
1. O=C(CN=C(CN(c1ccccc1)c1ccccc1)Oc1c(Cl)cc(Cl)cc1Cl)N1c2ccccc2Sc2ccccc21
2. O=C(Nc1cccc(-n2ccc3c(NC(=O)c4ccccc4)nccc32)c1)Nc1ccc(Cl)c(C(F)(F)F)c1
3. Cc1cc(NS(=O)(=O)c2ccc(Nc3c4ccccc4nc4c(C(=O)Nc5ccc(S(N)(=O)=O)cc5)cccc34)cc2)no1
4. CC1=C(C(=O)Nc2ccc([N+](=O)[O-])cc2)C(c2cccc([N+](=O)[O-])c2)C(C(=O)Nc2ccc([N+](=O)[O-])cc2)=C(C)N1
5. C[CH2][Sn]([CH2]C)([O]C(=O)c1cccc(OC)c1)[O][Sn]([CH2]C)([CH2]C)[O]C(=O)c1cccc(OC)c1

> 100 µM
> 100 µM
> 100 µM
> 100 µM
30.7 µM

---

System: SNB-19 CNS
testProtocol: NCI tumour cell line growth inhibition, 48 h
Kindly state GI50 for each of the entries shown.

Reference set, count: 2
Item under review: Cc1ccc(/C(=N/NS(=O)(=O)c2ccc([N+](=O)[O-])cc2)Sc2cc(Cl)c(C)cc2S(N)(=O)=O)cc1 . Reported GI50? > 100 µM

Item under review: O=C1c2ccccc2C(=O)c2c1c(=O)c(=O)c1ccccc1c(=O)n2Cc1ccccc1 . Reported GI50? > 100 µM

Others:
Item under review: C=C1c2c(C)nn(-c3ccc(OC)cc3)c2N(C)C23C[C@@H]1C1(C)c4c(C)nn(-c5ccc(OC)cc5)c4N(C)C(C)(C[C@H]12)C3 (stereo partly drawn) . Reported GI50? 4.34 µM

---

System: OVCAR-4 ovarian
testProtocol: NCI tumour cell line growth inhibition, 48 h; in the data active means GI50 below about 0.43 µM; inactive means the rest
Write down one outcome, taken from 1 for active, 0 for inactive

Some solved cases for reference:
Look up the recorded call for CC1OC(OC2C(O)C(OCCc3ccc(O)c(O)c3)OC(CO)C2OC(=O)/C=C/c2ccc(O)c(O)c2)C(O)C(O)C1OC1OCC(O)(CO)C1O (configuration not stated) in this test. 0

Look up the recorded call for COc1cccc(/C=C/c2ccc(S(N)(=O)=O)cc2)c1 in this test. 0

Look up the recorded call for N#Cc1c(-c2ccc(Cl)cc2)csc1NC(=O)Nc1ccc(Cl)c(C(F)(F)F)c1 in this test. 0

Look up the recorded call for O=C(/C=C/c1cc2ccccc2[nH]c1=O)c1ccc(Cl)cc1 in this test. 0

Look up the recorded call for Cc1ccc(/C(=N/NS(=O)(=O)c2ccc([N+](=O)[O-])cc2)Sc2cc(Cl)c(C)cc2S(N)(=O)=O)cc1 in this test. 0

Others:
Look up the recorded call for C=C1C(=O)O[C@H]2[C@H]1CC/C(CNC(=O)c1cccc3ccccc13)=C\CC[C@@]1(C)O[C@@H]21 in this test. 0

Look up the recorded call for N#C/C(=C\c1cn(Cc2ccccc2)c2ccccc12)C(=O)Nc1ncc(Cc2ccccc2Cl)s1 in this test. 1

---

Kindly state TGI for each of the entries shown.
Tested on: XF 498 CNS
testProtocol: NCI tumour cell line growth inhibition, 48 h

Reference set, count: 5
Item under review: COc1nc(NC2OC(COC(C)=O)C(OC(C)=O)C(OC(C)=O)C2OC(C)=O)c2c(OC(C)=O)c(C)c(=O)oc2n1 (stereo not drawn) . Reported TGI? > 100 µM

Item under review: Nc1n[n+](=O)c2ccccc2n1O . Reported TGI? > 100 µM

Item under review: C[CH2][Sn]([CH2]C)([O]C(=O)c1cccc(OC)c1)[O][Sn]([CH2]C)([CH2]C)[O]C(=O)c1cccc(OC)c1 . Reported TGI? 29.6 µM

Item under review: CCOP(=S)(OCC)Oc1ccc2c(c1)OC(=O)C1(Cl)C2(C)C2(Cl)C(=O)Oc3cc(OP(=S)(OCC)OCC)ccc3C12C (stereo not drawn) . Reported TGI? 36.2 µM

Item under review: COc1ccc(C(c2ccc(C(C)C)cc(OC)c2=O)c2ccc(C(C)C)cc(OC)c2=O)cc1 . Reported TGI? 34.7 µM

Give measured TGI for every item shown.
1. Cc1cc(NS(=O)(=O)c2ccc(Nc3c4ccccc4nc4c(C(=O)Nc5ccc(S(N)(=O)=O)cc5)cccc34)cc2)no1
2. CCCCc1c2c(nc3c1CCCC3=O)C(=O)CCC2

1: 57.9 µM; 2: > 100 µM

Item under review: Cn1c2c([N+](=O)[O-])cccc2c(=O)c2c(O)cc3c(c21)C=CC(C)(C)O3 . Reported TGI? 45.2 µM

---

Kindly state TGI for each of the entries shown.
Test system: SF-295 CNS
testProtocol: NCI tumour cell line growth inhibition, 48 h

Reference set, count: 3
Item under review: CN(NC(=O)/C(=C/c1ccc(Cl)cc1)NC(=O)c1ccccc1)c1cn[nH]c(=O)c1Cl . Reported TGI? > 100 µM

Item under review: NC(=S)N/N=C/c1c[nH]c2ccccc12 . Reported TGI? > 100 µM

Item under review: O=C(NC(=S)Nc1ccccn1)c1ccccc1 . Reported TGI? > 100 µM

Give measured TGI for every item shown.
1. CNC(=O)C(CCc1ccccc1)NC(=O)C(CC(=O)NO)CC(C)C (stereo unspecified)
2. O=C1NC2c3c(I)sc(I)c3/C(=N\O)C2O1 (stereo unspecified)

1. > 25 µM
2. > 100 µM

Item under review: COC(=O)CCC1=NOC(CC2CC(CCC(=O)OC)=NO2)C1 (stereo unspecified) . Reported TGI? > 100 µM

---

Test system: MALME-3M melanoma
testProtocol: NCI tumour cell line growth inhibition, 48 h
Kindly state TGI for each of the entries shown.

Reference set, count: 8
Item under review: CN(C)c1[se]nc2c1c(=O)n(C)c(=O)n2C . Reported TGI? > 100 µM

Item under review: NCCCCCCn1c(-c2ccc(Br)cc2)csc1=Nc1ccccc1 . Reported TGI? 25.6 µM

Item under review: COc1cc(Nc2nc3ccccc3n3cccc23)cc(OC)c1OC . Reported TGI? > 100 µM

Item under review: N#Cc1c(-c2ccc([N+](=O)[O-])cc2)cc(-c2ccc(Nc3ccnc4cc(C(F)(F)F)ccc34)cc2)[nH]c1=O . Reported TGI? > 100 µM

Item under review: CC(C)N(C(=O)C12C3C4C1C1C2C3C41C(=O)O)C(C)C (centres undefined) . Reported TGI? > 100 µM

Item under review: COc1ccc([C@@H]2C[C@@H]3C(=O)OC(=O)[C@@H]3c3c2c2ccccc2n3C)cc1 . Reported TGI? > 100 µM

Item under review: COc1cc(/C=C2/SC(c3ccccc3)N(c3cccc(NC(C)=O)c3)C2=O)cc(OC)c1OC (centres undefined) . Reported TGI? > 100 µM

Item under review: COc1ccc(-c2c(-c3cc(OC)c(OC)c(OC)c3)nc3sc(C4CC4)nn23)cc1OC . Reported TGI? 75.2 µM

Now examine the next entry.
Item under review: CN1CCCC1c1cccnc1.O=C(O)c1ccccc1O.O=C([O-])c1ccccc1[OH2+].O=C([O-])c1ccccc1[OH2+].O=C([O-])c1ccccc1[OH2+].[Cu+2] (centres undefined) . Reported TGI? > 100 µM

---

Test system: UACC-257 melanoma
testProtocol: NCI tumour cell line growth inhibition, 48 h
measuredParameter: TGI

Reference set, count: 3
Item under review: COc1cc(N2C(=O)C(=O)C3(CCCCC3)C2=O)cc(OC)c1OC . Reported TGI? > 100 µM

Item under review: COc1cccc2c1C(=O)c1c(O)c3c(c(O)c1C2=O)CC(O)(/C(C)=N/NC(=O)CCCCC(=O)N/N=C(\C)C1(O)Cc2c(O)c4c(c(O)c2C(OC2CC(N)C(O)C(C)O2)C1)C(=O)c1c(OC)cccc1C4=O)CC3OC1CC(N)C(O)C(C)O1 (stereo not given) . Reported TGI? 2.37 µM

Item under review: CCOC(=O)NC(=O)c1cn(CCCOC(=O)CCCCCCCCC(=O)OCCCn2cc(C(=O)NC(=O)OCC)c(=O)n(C)c2=O)c(=O)n(C)c1=O . Reported TGI? > 100 µM

Give measured TGI for every item shown.
1. Cc1nc2c(n1CC(C)C)C(=O)c1ccccc1C2=O
2. CCN(CC)CCn1ncc2c3c(=O)c4cccnc4n(CCN(CC)CC)c3ccc21
3. COc1cc(C(=O)c2c(-c3ccccc3)oc3c(OC)cccc23)cc(OC)c1O
4. Brc1ccc(SCN(CSc2ccc(Br)cc2)Cc2ccccc2)cc1
5. O=C1c2ccccc2C(=O)c2c1c(=O)c(=O)c1ccccc1c(=O)n2Cc1ccccc1

["45.4 µM", "> 10 µM", "> 100 µM", "17.5 µM", "> 100 µM"]

Give measured TGI for every item shown.
1. CCOC(=O)C1C(c2ccccc2)=C(c2ccccc2)C(c2ccccc2)=C1c1ccccc1
2. CC(C)N(C(=O)C12C3C4C1C1C2C3C41C(=O)O)C(C)C (stereo not given)
3. CC(C)=CC(=O)c1[nH]c2ccccc2c1CC(=O)NCCc1cn(C(c2ccccc2)(c2ccccc2)c2ccccc2)cn1
4. COc1cc(Nc2nc3ccccc3n3cccc23)cc(OC)c1OC
5. O=C(NO)C(=O)Nc1cc(Cl)ccc1Cl
6. CN(C)c1ccc(Nc2ncnc3ccccc23)cc1
7. N#CC[C@@H](O)COc1ccccc1

1: > 100 µM; 2: > 100 µM; 3: > 67.4 µM; 4: > 100 µM; 5: > 100 µM; 6: > 100 µM; 7: > 100 µM

Give measured TGI for every item shown.
1. O=C1c2ccccc2-c2nc(-c3ccncc3)cc3c2c1nc1ccccc13
2. COC(=O)[C@]12CC[C@H]3CN(C(=O)OCc4ccccc4)[C@H]([C@H]31)[C@H](c1ccco1)N2
3. COc1ccc(-c2c(-c3cc(OC)c(OC)c(OC)c3)nc3sc(C4CC4)nn23)cc1OC
4. O=C(ON=c1c2ccccc2ccc2ccccc12)c1ccccc1

["47.3 µM", "81.4 µM", "> 100 µM", "93.4 µM"]

Give measured TGI for every item shown.
1. CN(/N=C(\C(=O)O)c1ccccc1)C1=NCCCCN1
2. CCc1c(-c2ccc(OC)cc2)c(=O)oc2cc(O)ccc12

1: > 100 µM; 2: 61.3 µM

Give measured TGI for every item shown.
1. CN(C)c1nc(=Nc2ccc3c(c2)OCO3)ss1
2. CO[C@@H]1C[C@H]2[C@@H]3CC[C@H]([C@H](C)CO)[C@@]3(C)CC[C@@H]2[C@@]2(C)CC[C@H]3C[C@]312
3. COC(=O)[C@@H]1C[C@@]23CCCN4CC[C@@]5(c6cccc(OC)c6N(C=O)[C@]15CC2)[C@@H]43
4. CCN(C(=N)C#N)c1ccccc1

["> 100 µM", "86.5 µM", "> 100 µM", "> 100 µM"]

Give measured TGI for every item shown.
1. CC(=O)Oc1ccc2[nH]c3c(C)c4cccc-4ccc3c2c1
2. CCOC(=O)C(C(CC(=O)OC)NC(=O)OCc1ccccc1)C1(C)OCCO1 (stereo not given)
3. COc1ccc(N2C(=O)C3c4[nH]c5ccccc5c4C4CCC(c5ccccc5)CC4C3C2=O)cc1 (stereo not given)
4. Cn1c(=O)n(CCCO)c(=O)c2c1nc(Oc1cccc(OC(F)(F)F)c1)n2Cc1ccc(Cl)cc1
5. CCNCCCn1c2c(c3ccc(F)cc3c1=O)C(=O)c1cc(OC)cnc1-2
6. O=Cc1c(O)ccc2ccc(O)c(-c3c(O)ccc4ccc(O)cc34)c12
7. O=C(Nc1ccc(-n2cc(-c3ccncc3)c(-c3ccc(O)c(Cl)c3)n2)cc1)c1cc(C(F)(F)F)cc(C(F)(F)F)c1
8. COc1cc(/C=C/C(=O)Oc2ccc(NC(C)=O)cc2)ccc1C(=O)OCc1ccccc1

4.07 µM
> 100 µM
97.5 µM
34.5 µM
2.16 µM
> 100 µM
> 25 µM
> 100 µM

Give measured TGI for every item shown.
1. O=C1NC2c3c(I)sc(I)c3/C(=N\O)C2O1 (stereo not given)
2. Cc1cc(NS(=O)(=O)c2ccc(Nc3c4ccccc4nc4c(C(=O)Nc5ccc(S(N)(=O)=O)cc5)cccc34)cc2)no1

1: > 100 µM; 2: > 100 µM
